Please respond with reported Hemolytic Activity (%) at 50 μM for every item in the list.
test: Hemolytic activity
Format: cell-based
conditions: peptide at 50 μM
Bridge positions count the residues as written; N and C are the ends. Ends that are not written are not given here. I, II: the chains in the order shown.
Could you give me the number in %? Just the number is fine.

Lookup: Requested field: Hemolytic Activity (%) at 50 μM. Item: GWGSIFKTVGKMIAKAAVKAAPEAISAMASQNE [PLP2]
Found: 10.4

Lookup: Requested field: Hemolytic Activity (%) at 50 μM. Item: IWGALLGTLIPAITSAIQ-NH2 [PLP5]
Found: 94.8

Lookup: Requested field: Hemolytic Activity (%) at 50 μM. Item: I: GVKELFGKAWGLVKKHLPKACGLLGYVKQ-OH / II: GVKELFGKAWGLVKKHLPKACGLLGYVKQ-OH (disulfide I:21-II:21) [PLP4]
Found: 10.5

---

test: Hemolytic activity
Format: cell-based
conditions: peptide at 10 μM
Bridge positions count the residues as written; N and C are the ends. Ends that are not written are not given here. I, II: the chains in the order shown.
reportedEndpoint: Hemolytic Activity (%) at 10 μM

Please review the following examples before continuing.
>>> df
                                  substance    result
0  KIKWGKIFKKGGKLIGKTALEAAANAAASEAISAMASQNE [PLP3]  Negative
1              GILDWGKKVMDWIKDKM-NH2 [PLP1]  Negative
2  IKGKKIMKNMGKAMKIAGKVAKAMAPIVVPLIVSAA-NH2 [PLP6]  Negative
3  GWGSIFKTVGKMIAKAAVKAAPEAISAMASQNE [PLP2]  Negative
4  I: GVKELFGKAWGLVKKHLPKACGLLGYVKQ-OH / II: GVKELFGKAWGLVKKHLPKACGLLGYVKQ-OH (disulfide I:21-II:21) [PLP4]  Negative

For the next question, use this substance.
Lookup: Requested field: Hemolytic Activity (%) at 10 μM. Item: IWGALLGTLIPAITSAIQ-NH2 [PLP5]
Found: 6.9%

---

test: Hemolytic activity
Format: cell-based
conditions: peptide at 50 μM
Ends that are not written are not given here.
reportedEndpoint: Hemolytic Activity (%) at 50 μM

                                  substance    result
0              GILDWGKKVMDWIKDKM-NH2 [PLP1]  Negative
1  IKGKKIMKNMGKAMKIAGKVAKAMAPIVVPLIVSAA-NH2 [PLP6]  Negative
2  KIKWGKIFKKGGKLIGKTALEAAANAAASEAISAMASQNE [PLP3]  Negative
